Assay: xn = mol fraction of the nth substance listed
Details: 298.15 K; 101 kPa; x1 = 0.3
assay_endpoint: viscosity (mPa·s)

>>> reading("CCCC(=O)O + ClC(Cl)(Cl)Cl")
0.966
>>> reading("COCCO + O")
2.942
>>> reading("C1CCNCC1 + O")
5.4
>>> reading("CCN(C=O)CC + NC=O")
3.51

----------
Conditions: 293.15 K; 101 kPa
Listed below: viscosity values for each entry.
assay_endpoint: viscosity (mPa·s)

>>> reading("C1CC[C@H]2CCCC[C@H]2C1")
3.337
>>> reading("COCCO")
1.78
>>> reading("CCCC[N+](C)(CCCC)CCCC.N#C[N-]C#N")
497.7
>>> reading("CCCCCCCBr")
1.205

----------
Assay: xn = mol fraction of the nth substance listed
Conditions: 293.15 K; 100 kPa; x2 = 0.875
± gives the uncertainty stated by the source.
assay_endpoint: viscosity

>>> reading("C1CC[C@H]2CCCC[C@H]2C1 + CC1CCCCC1")
"0.894 ± 0.021 mPa·s"
>>> reading("CC(CC(C)(C)C)CC(C)(C)CC(C)(C)C (centres undefined) + CC1CCCCC1")
"0.967 ± 0.023 mPa·s"
>>> reading("CC(CC(C)(C)C)CC(C)(C)CC(C)(C)C (centres undefined) + C1CC[C@H]2CCCC[C@H]2C1")
"3.377 ± 0.086 mPa·s"
>>> reading("CC(CC(C)(C)C)CC(C)(C)CC(C)(C)C (centres undefined) + CCCCCCCCCCCCC")
"1.98 ± 0.09 mPa·s"

----------
Experiment: xn = mol fraction of the nth substance listed
Settings: 298.15 K; 101 kPa; x1 = 0.2
± gives the uncertainty stated by the source.
Listed below: viscosity values for each entry.
assay_endpoint: viscosity

>>> reading("CCN(C=O)CC + NC=O")
"3.62 ± 0.1 mPa·s"
>>> reading("COCCO + O")
"2.766 ± 0.059 mPa·s"
>>> reading("CCCC(=O)O + O")
"2.823 ± 0.076 mPa·s"
>>> reading("C1CCNCC1 + O")
"4.76 ± 0.14 mPa·s"

----------
Assay: xn = mol fraction of the nth substance listed
Settings: 293.15 K; 100 kPa; x2 = 0.5
Listed below: viscosity values for each entry.
assay_endpoint: viscosity (mPa·s)

>>> reading("CC(CC(C)(C)C)CC(C)(C)CC(C)(C)C (centres undefined) + CCCCCCCCCCCCC")
2.49
>>> reading("C1CC[C@H]2CCCC[C@H]2C1 + CC1CCCCC1")
1.541
>>> reading("CC(CC(C)(C)C)CC(C)(C)CC(C)(C)C (centres undefined) + CC1CCCCC1")
1.89
>>> reading("CC(CC(C)(C)C)CC(C)(C)CC(C)(C)C (centres undefined) + C1CC[C@H]2CCCC[C@H]2C1")
3.505

----------
Assay: xn = mol fraction of the nth substance listed
Details: 303.15 K; 100 kPa; x2 = 0.375
assay_endpoint: viscosity (mPa·s)

>>> reading("CC(CC(C)(C)C)CC(C)(C)CC(C)(C)C (centres undefined) + CCCCCCCCCCCCC")
2.18
>>> reading("CC(CC(C)(C)C)CC(C)(C)CC(C)(C)C (centres undefined) + CC1CCCCC1")
1.864
>>> reading("CC(CC(C)(C)C)CC(C)(C)CC(C)(C)C (centres undefined) + C1CC[C@H]2CCCC[C@H]2C1")
2.83
>>> reading("C1CC[C@H]2CCCC[C@H]2C1 + CC1CCCCC1")
1.567

----------
Listed below: viscosity values for each entry.
Experiment: xn = mol fraction of the nth substance listed
Conditions: 323.15 K; 100 kPa; x2 = 0.125
assay_endpoint: viscosity (mPa·s)

>>> reading("C1CC[C@H]2CCCC[C@H]2C1 + CC1CCCCC1")
1.578
>>> reading("CC(CC(C)(C)C)CC(C)(C)CC(C)(C)C (centres undefined) + CCCCCCCCCCCCC")
1.79
>>> reading("CC(CC(C)(C)C)CC(C)(C)CC(C)(C)C (centres undefined) + CC1CCCCC1")
1.766
>>> reading("CC(CC(C)(C)C)CC(C)(C)CC(C)(C)C (centres undefined) + C1CC[C@H]2CCCC[C@H]2C1")
1.961

----------
Assay: xn = mol fraction of the nth substance listed
Details: 303.15 K; 100 kPa; x2 = 0.625
± gives the uncertainty stated by the source.
assay_endpoint: viscosity

>>> reading("C1CC[C@H]2CCCC[C@H]2C1 + CC1CCCCC1")
"1.096 ± 0.026 mPa·s"
>>> reading("CC(CC(C)(C)C)CC(C)(C)CC(C)(C)C (centres undefined) + C1CC[C@H]2CCCC[C@H]2C1")
"2.765 ± 0.072 mPa·s"
>>> reading("CC(CC(C)(C)C)CC(C)(C)CC(C)(C)C (centres undefined) + CCCCCCCCCCCCC")
"1.89 ± 0.09 mPa·s"
>>> reading("CC(CC(C)(C)C)CC(C)(C)CC(C)(C)C (centres undefined) + CC1CCCCC1")
"1.283 ± 0.031 mPa·s"

----------
Assay: xn = mol fraction of the nth substance listed
Details: 293.15 K; 100 kPa; x2 = 0.125
assay_endpoint: viscosity (mPa·s)

>>> reading("C1CC[C@H]2CCCC[C@H]2C1 + CC1CCCCC1")
2.749
>>> reading("CC(CC(C)(C)C)CC(C)(C)CC(C)(C)C (centres undefined) + CCCCCCCCCCCCC")
3.28
>>> reading("CC(CC(C)(C)C)CC(C)(C)CC(C)(C)C (centres undefined) + C1CC[C@H]2CCCC[C@H]2C1")
3.68
>>> reading("CC(CC(C)(C)C)CC(C)(C)CC(C)(C)C (centres undefined) + CC1CCCCC1")
3.188

----------
Assay: xn = mol fraction of the nth substance listed
Conditions: 293.15 K; 100 kPa; x2 = 0.375
assay_endpoint: viscosity (mPa·s)

>>> reading("CC(CC(C)(C)C)CC(C)(C)CC(C)(C)C (centres undefined) + CCCCCCCCCCCCC")
2.69
>>> reading("CC(CC(C)(C)C)CC(C)(C)CC(C)(C)C (centres undefined) + CC1CCCCC1")
2.275
>>> reading("CC(CC(C)(C)C)CC(C)(C)CC(C)(C)C (centres undefined) + C1CC[C@H]2CCCC[C@H]2C1")
3.559
>>> reading("C1CC[C@H]2CCCC[C@H]2C1 + CC1CCCCC1")
1.867

----------
Listed below: viscosity values for each entry.
Test: xn = mol fraction of the nth substance listed
Conditions: 293.15 K; 100 kPa; x2 = 0.25
assay_endpoint: viscosity (mPa·s)

>>> reading("C1CC[C@H]2CCCC[C@H]2C1 + CC1CCCCC1")
2.287
>>> reading("CC(CC(C)(C)C)CC(C)(C)CC(C)(C)C (centres undefined) + C1CC[C@H]2CCCC[C@H]2C1")
3.64
>>> reading("CC(CC(C)(C)C)CC(C)(C)CC(C)(C)C (centres undefined) + CCCCCCCCCCCCC")
2.98
>>> reading("CC(CC(C)(C)C)CC(C)(C)CC(C)(C)C (centres undefined) + CC1CCCCC1")
2.761

----------
Experiment: xn = mol fraction of the nth substance listed
Details: 293.15 K; 100 kPa; x2 = 0.75
Listed below: viscosity values for each entry.
assay_endpoint: viscosity (mPa·s)

>>> reading("CC(CC(C)(C)C)CC(C)(C)CC(C)(C)C (centres undefined) + CCCCCCCCCCCCC")
2.14
>>> reading("CC(CC(C)(C)C)CC(C)(C)CC(C)(C)C (centres undefined) + CC1CCCCC1")
1.244
>>> reading("CC(CC(C)(C)C)CC(C)(C)CC(C)(C)C (centres undefined) + C1CC[C@H]2CCCC[C@H]2C1")
3.402
>>> reading("C1CC[C@H]2CCCC[C@H]2C1 + CC1CCCCC1")
1.076

----------
Experiment: xn = mol fraction of the nth substance listed
Conditions: 323.15 K; 100 kPa; x2 = 0.875
Listed below: viscosity values for each entry.
assay_endpoint: viscosity (mPa·s)

>>> reading("CC(CC(C)(C)C)CC(C)(C)CC(C)(C)C (centres undefined) + CCCCCCCCCCCCC")
1.18
>>> reading("CC(CC(C)(C)C)CC(C)(C)CC(C)(C)C (centres undefined) + C1CC[C@H]2CCCC[C@H]2C1")
1.87
>>> reading("C1CC[C@H]2CCCC[C@H]2C1 + CC1CCCCC1")
0.604
>>> reading("CC(CC(C)(C)C)CC(C)(C)CC(C)(C)C (centres undefined) + CC1CCCCC1")
0.641

----------
Conditions: 298.15 K; 101.33 kPa
± gives the uncertainty stated by the source.
assay_endpoint: viscosity

>>> reading("CCN(C=O)CC")
"1.254 ± 0.008 mPa·s"
>>> reading("CCCCNCCCC")
"0.81 mPa·s"
>>> reading("COCCO")
"1.552 ± 0.014 mPa·s"
>>> reading("CC(CC(C)(C)C)CC(C)(C)CC(C)(C)C (centres undefined)")
"3.343 ± 0.041 mPa·s"
